- protocol.text: Lewis acidity measuring method (1): rate of oxidation of CoTPP by O2 in the presence of the Lewis acid
- Type: physicochemical
- measurement.parameters: calculated from rate of oxidization of CoTPP with O2
readout.name: Lewis acidity (ΔE value) (eV)
Give the value in eV but do not write eV after it.

These solved cases illustrate the format of a correct answer.
molecule	measurement.units	Lewis acidity (ΔE value)
Cc1cc2nc3cc(C)c(N)cc3[n+](-c3ccccc3)c2cc1N.[Cl-] [Safranine]	eV	0.67
C[N+](C)(C)CC(=O)O [Betaine]	eV	0.67
CC(=O)OCC[N+](C)(C)C [Acetylcholine]	eV	0.51

Query block: Can you share its Lewis acidity (ΔE value)? I mean this molecule: `CCCCCCCCCCCCCCCCCC[N+](C)(C)Cc1ccccc1.[Cl-]`
Result block: 0.52

###

- protocol.text: Lewis acidity measuring method (1): rate of oxidation of CoTPP by O2 in the presence of the Lewis acid
- Assay type: physicochemical
- measurement.parameters: calculated from rate of oxidization of CoTPP with O2
Threshold 0.6 eV. Lewis acidity (ΔE value) below it: true. Lewis acidity (ΔE value) at it or above: false.

Illustrative cases are given below, each with its answer.
molecule	assigned.class
CC[N+](CC)(CC)Cc1ccccc1.[Cl-] [Benzyltriethyl ammonium chloride]	true
C[N+](C)(C)C.[Cl-] [Tetramethylammonium chloride]	true
Cl.N [Ammonium chloride]	false

Query block: Strictly below 0.6 eV: is that where Lewis acidity (ΔE value) of CCCC[N+](CCCC)(CCCC)CCCC.[Cl-] [Tetrabutylammonium chloride] sits?
Result block: false

Query block: Strictly below 0.6 eV: is that where Lewis acidity (ΔE value) of CN.Cl [methylammonium chloride] sits?
Result block: false

Query block: Strictly below 0.6 eV: is that where Lewis acidity (ΔE value) of C[n+]1cccc(C(=O)[O-])c1 [Trigonelline] sits?
Result block: false

Query block: Strictly below 0.6 eV: is that where Lewis acidity (ΔE value) of C[N+](C)(C)CCOC(N)=O [Carbamylcholine] sits?
Result block: true
